Experiment: BET inhibitor-based combinations targeting novel dependencies in MECOM-rearranged (r) AML: MV-4-11 cell line (AID 2202233); note: potency is the fitted concentration of half-maximal effect; nearly all actives have a fitted effect of over 45% in size
Settings: MV-4-11 AML viability, CellTiter-Glo luminescence, 48 h; series mostly up to 46 µM
Results filed as inconclusive are left out. Activity calls are given as the source filed them. Calls come from the whole dose curve; as a rule, active = well fitted inhibition curve with a large enough effect; inconclusive = small, poorly fitted or top-dose-only effect; inactive = no such curve, though single readings can be large or run the other way.
READOUT_KIND: Potency

Value lookup for Potency; key = COc1cc2c3c(n(CCCNCCO)c(=O)c2cc1OC)-c1cc2c(cc1C3=O)OCO2
59 nM (active)

Value lookup for Potency; key = Cc1cc(CN2CCN(c3c(Br)cnc4nc(-c5ccc(N6CCN(C)CC6)cc5)[nH]c34)CC2)no1
332 nM (active)

Value lookup for Potency; key = COc1ccc(CC2c3cc(OC)c(OC)cc3CC[N+]2(C)CCC(=O)OCCCCCOC(=O)CC[N+]2(C)CCc3cc(OC)c(OC)cc3C2Cc2ccc(OC)c(OC)c2)cc1OC (centres undefined)
18600 nM (active)
